Test: log P by reversed-phase HPLC (C 18), acidic range
Type: physicochemical
Conditions: marked a): acidic range, 0.1% aqueous phosphoric acid/acetonitrile gradient, HPLC C 18, 43° C.

| compound | logP |
| --- | --- |
| CN(C)NC(=O)Nc1c(Cl)ccc(C(=O)C2=C(O)CCCC2=O)c1Cl | (I-2) logP = 1.81^a) |
| O=C(NCC1CCCO1)Nc1c(Cl)ccc(C(=O)C2=C(O)CCCC2=O)c1Cl (centres unmarked) | (I-2) logP = 1.81^a) |

----------
Assay: log P by reversed-phase HPLC (C 18), acidic range
Format: physicochemical
Conditions: reversed-phase HPLC column (C 18); pH=2.3
propertyMeasured: chromatographic logP

| molSmiles | measuredResult |
| --- | --- |
| CN1CCN(C(=O)Nc2c(Cl)ccc(C(=O)C3C(=O)CCCC3=O)c2Cl)C1=O | 2.07 |

Sourced from patent US7670991B2
